- PROTOCOL_TEXT: Unbound fraction in rat plasma (rapid equilibrium dialysis)
- Assay type: in vitro ADME
- APPLIED_CONDITIONS: 10 μM, 37 °C, 4 h, n = 3, read-out: free fraction in rat plasma
MEASURE_NAME: fraction unbound at 4 h, 10 µM
Just the number, please, no unit after it.

Need fraction unbound at 4 h, 10 µM, item `CC(C)=CCc1cc([C@@H]2CC(=O)c3ccc(O)c(CC=C(C)C)c3O2)cc(CC=C(C)C)c1O`
0.00038

###

- PROTOCOL_TEXT: Effects of SPN on the pharmacokinetics of diclofenac in rats
- APPLIED_CONDITIONS: male, Sprague-Dawley, rat, plasma, po, 2 mg/kg, Tmax, median (ranges), rats, oral diclofenac 2 mg/kg, with oral SPN 75 mg/kg, n = 6
MEASURE_NAME: Tmax

Look up Tmax for this molecule: O=C(O)Cc1ccccc1Nc1c(Cl)cc(O)cc1Cl [4′-hydroxydiclofenac]
15 min

###

- SYSTEM_UNDER_TEST: CYP3A4 (Homo sapiens, UniProt P08684)
- Construct: tissue Corning Life Sciences; host or cells: pooled human liver microsomes, 150 donors
- Sequence (P08684 whole entry): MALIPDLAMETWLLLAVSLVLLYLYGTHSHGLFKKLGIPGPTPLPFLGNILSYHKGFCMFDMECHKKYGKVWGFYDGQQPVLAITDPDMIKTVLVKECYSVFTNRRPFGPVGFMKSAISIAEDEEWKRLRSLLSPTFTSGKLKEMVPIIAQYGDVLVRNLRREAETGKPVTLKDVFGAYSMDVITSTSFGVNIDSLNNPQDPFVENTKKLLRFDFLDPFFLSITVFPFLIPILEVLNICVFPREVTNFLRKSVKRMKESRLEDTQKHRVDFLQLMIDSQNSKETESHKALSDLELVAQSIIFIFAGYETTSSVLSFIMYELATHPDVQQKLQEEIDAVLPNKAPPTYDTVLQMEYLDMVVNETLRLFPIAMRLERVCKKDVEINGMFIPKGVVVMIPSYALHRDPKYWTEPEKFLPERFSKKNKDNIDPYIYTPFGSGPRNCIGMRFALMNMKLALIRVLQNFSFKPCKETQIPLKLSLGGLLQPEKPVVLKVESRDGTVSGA
- PROTOCOL_TEXT: Inhibition of CYP3A4-catalyzed testosterone 6β-hydroxylation
- Assay type: biochemical
- APPLIED_CONDITIONS: data not shown
MEASURE_NAME: IC50 (µM)
Hi! Could you send only the number? It should be in µM, unit omitted.

Kindly state the measured IC50 obtained for CC(C)=CCc1cc([C@@H]2CC(=O)c3ccc(O)c(CC=C(C)C)c3O2)cc(CC=C(C)C)c1O [SPN, (‒)-Sophoranone] with CYP3A4 (Homo sapiens, UniProt P08684).
31.5

###

- SYSTEM_UNDER_TEST: CYP2E1 (Homo sapiens)
- Construct: tissue Corning Life Sciences; host or cells: pooled human liver microsomes, 150 donors
- Sequence (P05181 whole entry): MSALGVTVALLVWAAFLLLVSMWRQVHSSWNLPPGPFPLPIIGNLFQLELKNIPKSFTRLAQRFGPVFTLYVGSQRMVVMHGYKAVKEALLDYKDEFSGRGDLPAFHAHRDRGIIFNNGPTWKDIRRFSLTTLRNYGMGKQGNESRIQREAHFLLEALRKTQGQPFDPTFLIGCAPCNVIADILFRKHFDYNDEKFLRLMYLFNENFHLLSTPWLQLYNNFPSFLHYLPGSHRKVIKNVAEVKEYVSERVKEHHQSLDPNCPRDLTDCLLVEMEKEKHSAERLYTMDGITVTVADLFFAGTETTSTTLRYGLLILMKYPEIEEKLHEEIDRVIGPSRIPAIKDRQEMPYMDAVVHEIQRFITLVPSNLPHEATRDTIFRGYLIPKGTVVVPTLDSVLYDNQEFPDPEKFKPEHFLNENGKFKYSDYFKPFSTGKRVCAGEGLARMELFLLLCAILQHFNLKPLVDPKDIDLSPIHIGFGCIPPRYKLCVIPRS
- PROTOCOL_TEXT: Reversible CYP2E1 inhibition, cocktail assay (chlorzoxazone 6-hydroxylase) in human liver microsomes
- Assay type: biochemical
- APPLIED_CONDITIONS: human liver microsomes 0.1 mg/mL, cocktail assay, chlorzoxazone probe, n = 3; read-out: IC50 Values, CYP2E1
- Description: The inhibitory effects of SPN on CYP1A2, CYP2A6, CYP2B6, CYP2C8, CYP2C9, CYP2C19, CYP2D6, CYP2E1, and CYP3A4 were evaluated in pooled human liver microsomes through the use of specific CYP probe substrates (cocktail assay), as previously described with a slight modification. Concentrations of each CYP probe in Table 1 were used close to their reported Km values. […]
pIC50: −log10 of the molar value.
MEASURE_NAME: pIC50

For the molecule `CC(C)=CCc1cc([C@@H]2CC(=O)c3ccc(O)c(CC=C(C)C)c3O2)cc(CC=C(C)C)c1O` , what pIC50 is on record?
< 4.30

###

Target protein (sequence): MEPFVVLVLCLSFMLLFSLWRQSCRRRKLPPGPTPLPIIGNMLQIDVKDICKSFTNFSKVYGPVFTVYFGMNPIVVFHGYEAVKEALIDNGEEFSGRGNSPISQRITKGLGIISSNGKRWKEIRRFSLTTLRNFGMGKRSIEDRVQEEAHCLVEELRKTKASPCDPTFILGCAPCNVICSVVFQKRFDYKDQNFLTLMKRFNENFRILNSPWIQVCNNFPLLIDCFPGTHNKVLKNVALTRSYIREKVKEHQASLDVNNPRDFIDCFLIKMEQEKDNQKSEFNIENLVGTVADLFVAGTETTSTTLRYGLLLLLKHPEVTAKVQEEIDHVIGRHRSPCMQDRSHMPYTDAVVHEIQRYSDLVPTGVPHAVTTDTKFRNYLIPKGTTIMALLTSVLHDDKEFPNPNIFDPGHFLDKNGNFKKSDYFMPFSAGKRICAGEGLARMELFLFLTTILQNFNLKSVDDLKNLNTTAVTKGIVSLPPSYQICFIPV
MEASURE_NAME: IC50 (µM)
Please give a number only; it is taken to be in µM.

Requested field: IC50. Item: `CC(C)=CCc1cc([C@@H]2CC(=O)c3ccc(O)c(CC=C(C)C)c3O2)cc(CC=C(C)C)c1O`
13.6

###

- PROTOCOL_TEXT: Unbound fraction in human liver microsomes (rapid equilibrium dialysis)
- Assay type: in vitro ADME
- APPLIED_CONDITIONS: 50 μM, microsomal protein 0.1 mg/mL, n = 3
MEASURE_NAME: fraction unbound at 4 h, 50 µM
Reply with the value as a number alone.

Please report the recorded fraction unbound at 4 h, 50 µM for `CC(C)=CCc1cc([C@@H]2CC(=O)c3ccc(O)c(CC=C(C)C)c3O2)cc(CC=C(C)C)c1O` .
0.00724

###

- PROTOCOL_TEXT: Bi-directional Caco-2 cell permeability
- Type: in vitro ADME
- APPLIED_CONDITIONS: human, Caco-2; 50 μM, 2 h, n = 3
MEASURE_NAME: Papp A→B at 2 h, 50 µM (×10⁻⁶ cm/s)
// units = ×10⁻⁶ cm/s; emit number, no label

For the molecule shown here, `CC(C)=CCc1cc([C@@H]2CC(=O)c3ccc(O)c(CC=C(C)C)c3O2)cc(CC=C(C)C)c1O` , give the reported Papp A→B at 2 h, 50 µM.
0.172

###

- PROTOCOL_TEXT: in vivo
- APPLIED_CONDITIONS: male, Sprague-Dawley, rat, po, 2 mg/kg, Tmax, median (ranges)
MEASURE_NAME: Tmax (min)
Give the quantity in min, number only.

Can you look up the measured Tmax of `O=C(O)Cc1ccccc1Nc1c(Cl)cccc1Cl` for me?
5

###

- PROTOCOL_TEXT: Bi-directional Caco-2 cell permeability
- Type: in vitro ADME
- APPLIED_CONDITIONS: human, Caco-2; 10 μM, 2 h, n = 3
For each entry below, report its Papp B→A at 2 h, 10 µM value.
Numeric answer only, unit ×10⁻⁶ cm/s assumed.

// Papp B→A at 2 h, 10 µM lookup, key: CC(C)NCC(O)COc1cccc2ccccc12 (centres unmarked) [propranolol, reference compound]
21.5

Suppose we examine the molecule CC(C)=CCc1cc([C@@H]2CC(=O)c3ccc(O)c(CC=C(C)C)c3O2)cc(CC=C(C)C)c1O [SPN, (‒)-Sophoranone] ; what Papp B→A at 2 h, 10 µM value has been reported?
0.101

###

- PROTOCOL_TEXT: Effects of SPN on the pharmacokinetics of diclofenac in rats
- APPLIED_CONDITIONS: male, Sprague-Dawley, rat, plasma, po, 2 mg/kg, t1/2, rats, oral diclofenac 2 mg/kg, with oral SPN 75 mg/kg, n = 6
MEASURE_NAME: half-life (h)
Write the value in h as a bare number.

What value of measured half-life is listed for O=C(O)Cc1ccccc1Nc1c(Cl)cc(O)cc1Cl [4′-hydroxydiclofenac] ?
4.93

###

- PROTOCOL_TEXT: Unbound fraction in rat plasma (rapid equilibrium dialysis)
- Assay type: in vitro ADME
- APPLIED_CONDITIONS: 10 and 50 μM, read-out: plasma protein binding, rat
MEASURE_NAME: fraction unbound at 4 h

// query fraction unbound at 4 h value for entry CC(C)=CCc1cc([C@@H]2CC(=O)c3ccc(O)c(CC=C(C)C)c3O2)cc(CC=C(C)C)c1O [SPN, (‒)-Sophoranone]
< 0.001

###

- PROTOCOL_TEXT: Unbound fraction in human plasma (rapid equilibrium dialysis)
- Type: in vitro ADME
- APPLIED_CONDITIONS: human, human plasma; 10 μM, 37 °C, 4 h, n = 3; read-out: free fraction in human plasma
MEASURE_NAME: fraction unbound at 4 h, 10 µM
Response field accepts a number only; no unit should be typed.

Any idea what its fraction unbound at 4 h, 10 µM is? The compound is `CC(C)=CCc1cc([C@@H]2CC(=O)c3ccc(O)c(CC=C(C)C)c3O2)cc(CC=C(C)C)c1O`
0.000457

###

- PROTOCOL_TEXT: Unbound fraction in human plasma (rapid equilibrium dialysis)
- Format: in vitro ADME
- APPLIED_CONDITIONS: mean over human and rat plasma in the range of 10 and 50 μM; read-out: mean unbound fraction in plasma
MEASURE_NAME: fraction unbound at 4 h

Dear colleague, I am looking for the recorded fraction unbound at 4 h of the following molecule: CC(C)=CCc1cc([C@@H]2CC(=O)c3ccc(O)c(CC=C(C)C)c3O2)cc(CC=C(C)C)c1O [SPN, (‒)-Sophoranone]
0.000574

###

- SYSTEM_UNDER_TEST: CYP2D6 (Homo sapiens, UniProt P10635)
- Sequence (P10635 whole entry): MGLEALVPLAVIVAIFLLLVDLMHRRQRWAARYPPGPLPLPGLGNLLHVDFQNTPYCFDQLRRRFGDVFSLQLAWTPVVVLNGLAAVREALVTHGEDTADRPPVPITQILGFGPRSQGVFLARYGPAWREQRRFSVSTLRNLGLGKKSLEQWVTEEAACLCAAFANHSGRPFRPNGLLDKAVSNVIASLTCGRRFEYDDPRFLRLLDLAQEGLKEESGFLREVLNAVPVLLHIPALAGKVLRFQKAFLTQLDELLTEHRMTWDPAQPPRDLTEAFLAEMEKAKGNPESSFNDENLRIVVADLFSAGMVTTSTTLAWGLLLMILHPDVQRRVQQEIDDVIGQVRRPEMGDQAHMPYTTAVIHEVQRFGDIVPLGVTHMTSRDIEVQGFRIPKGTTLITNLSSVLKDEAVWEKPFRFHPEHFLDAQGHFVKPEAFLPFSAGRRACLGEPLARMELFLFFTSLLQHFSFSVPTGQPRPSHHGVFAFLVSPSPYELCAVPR
MEASURE_NAME: IC50

Look up IC50: `CC(C)=CCc1cc([C@@H]2CC(=O)c3ccc(O)c(CC=C(C)C)c3O2)cc(CC=C(C)C)c1O`
> 50 µM

###

- PROTOCOL_TEXT: Unbound fraction in rat plasma (rapid equilibrium dialysis)
- Assay type: in vitro ADME
- APPLIED_CONDITIONS: 50 μM, 37 °C, 4 h, n = 3, read-out: free fraction in rat plasma
- Protocol: The plasma or liver microsomal protein bindings were performed using a rapid equilibrium dialysis device and cellulose membranes with a molecular weight cutoff of 8000 (Thermo Scientific, Rockford, IL, USA). […] The unbound fraction of SPN in human (or rat) plasma was calculated by dividing the SPN concentration in PBS by that in plasma.
MEASURE_NAME: fraction unbound at 4 h, 50 µM
Just the number, please.

Would you kindly share the measured fraction unbound at 4 h, 50 µM for CC(C)=CCc1cc([C@@H]2CC(=O)c3ccc(O)c(CC=C(C)C)c3O2)cc(CC=C(C)C)c1O [SPN, (‒)-Sophoranone] ?
0.000531
